tested on: ivy-leaved morning glory (Ipomoea hederacea); assay: Test G Post-Emergence Protocol; format: in vivo; conditions: Ipomoea, post-emergence, 312 h, 15.625 g ai/ha, evaluated after 13 days (100=total damage to plant; 0=no damage to plant), read-out: Morningglory, Ivy-leaved damage rating
READOUT NAME: pest or weed control at 15.625 g/ha
State the value with its unit after it.

Solved entries:
[[record]]
compound = "CN1C[C@@H](c2ccc(C(F)(F)F)cc2)[C@H](C(=O)Nc2ccc(F)nn2)C1=O (racemic) [Compound 1655]"
readout_name = "pest or weed control at 15.625 g/ha"
result_value = "0%"

[[record]]
compound = "Cc1cc(C2CN(C)C(=O)C2C(=O)Nc2cccc(F)c2F)cc(Cl)c1F (centres unmarked) [Compound 1708]"
readout_name = "pest or weed control at 15.625 g/ha"
result_value = "20%"


For record CN1C[C@@H](c2ccc(C(F)(F)F)cc2)[C@H](C(=O)Nc2ccc(F)nc2F)C1=O (racemic) [Compound 1650] the listed pest or weed control at 15.625 g/ha is 20%

compound C=CCc1c(Cl)cccc1NC(=O)[C@H]1C(=O)N(C)C[C@@H]1c1ccc(C(F)(F)F)cc1 (racemic) [Compound 1440] , pest or weed control at 15.625 g/ha observed: 0%

Quick note, pest or weed control at 15.625 g/ha for COc1cc([C@@H]2CN(C)C(=O)[C@H]2C(=O)Nc2cccc(F)c2F)ccc1Cl (racemic) [Compound 1474] landed at 40%

Data point: CN1C[C@@H](c2ccc(C(F)(F)F)cc2)[C@H](C(=O)Nc2cccnc2Cl)C1=O (racemic) [Compound 1517] ; pest or weed control at 15.625 g/ha = 20%

The compound listed as Cc1nonc1NC(=O)[C@@H]1C(=O)N(C)C[C@H]1c1ccc(C(F)(F)F)cc1 (racemic) [Compound 1597] has a reported pest or weed control at 15.625 g/ha of 0%

So for CN1C[C@H](c2ccc(C(F)(F)F)cc2)[C@@H](C(=O)Nc2cccc(F)[n+]2[O-])C1=O (racemic) [Compound 1814] , the logged pest or weed control at 15.625 g/ha turned out to be 0%

// CCOc1cc(F)cc(C2CN(C)C(=O)C2C(=O)Nc2cccc(F)c2F)c1 (centres unmarked) [Compound 1695] : pest or weed control at 15.625 g/ha value = 10%

// Cc1c(F)cccc1NC(=O)[C@@H]1C(=O)N(C)C[C@H]1c1cccc(C(C)(C)F)c1 (racemic) [Compound 1827] : pest or weed control at 15.625 g/ha value = 0%

The recorded pest or weed control at 15.625 g/ha for CC1OC(=O)c2c(NC(=O)[C@H]3C(=O)N(C)C[C@@H]3c3ccc(C(F)(F)F)cc3)cccc21 (mixture of isomers) [Compound 1670] is 0%

response.value for CN1C[C@H](c2cc(C(C)(C)C)ncn2)[C@@H](C(=O)Nc2ccc(F)c(F)c2F)C1=O (racemic) [Compound 1668] (field: pest or weed control at 15.625 g/ha) = 0%

For CN1C[C@H](c2cccc(C(F)(F)F)c2)[C@@H](C(=O)Nc2cnccc2[N+](=O)[O-])C1=O (racemic) [Compound 1731] the compound record lists pest or weed control at 15.625 g/ha as 0%

Quick note, pest or weed control at 15.625 g/ha for COc1c(Cl)ccc([C@H]2CN(C)C(=O)[C@@H]2C(=O)Nc2cccc(F)n2)c1F (racemic) [Compound 1477] landed at 0%

Source listed as patent US12077503B2.
